Source listed as the supplement of paper PMC10126150.

System: ATP;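 further: ATP exposure 15 min at 22 °C before imaging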
Assay: switch fluorescence ratio, 500 uM ATP over buffer (Cy3 cluster intensity, sum of 5 cycles each) (fold (ratio)); higher = stronger signal-on switching upon ATP binding; sequences stand for … in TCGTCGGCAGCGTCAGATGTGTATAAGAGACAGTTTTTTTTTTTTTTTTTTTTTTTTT…TC
Conditions: aptamer strand: ATP DNA aptamer (quencher-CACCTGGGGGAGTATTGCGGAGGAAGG + anchor), 100 nM annealed; ATP concentration: 500 uM
Entries annotated with measured switch fluorescence ratio
parameter: switch fluorescence ratio

> print(dat)
    sequence.code  measured.value
 1     GGGGAGGCAC           0.985
 2     TATAATCGAG               1
 3     CATTTGATTG           0.988
 4     CAGGCTGACC           0.974
 5     CATTTACTAT            1.05
 6     GGGCAAAGGT            1.09
 7     TGAGCTAGGG               1
 8     AAACTCTCCA            1.04
 9     TATCTTAAAT           0.997
10     CAGAGAGTTT           0.985
11     TGAAATATGT           0.987
12     AGTTTCGGCG               1
13     ATTCCTTGGT            1.03
14     CGTAAGTGCA               1
15     GCCGAGGGGA            1.05
16     TCGATACGAT           0.994
17     GTGGGTTTTT            1.01
18     TGAGGGGGAT               1
19     AACTAGTGGG            1.02
20     TCTAAAAGTG           0.975
